Target: Isdop2 (Ixodes scapularis, UniProt A0ACM8DGL0)
Sequence (A0ACM8DGL0 entry or part of it): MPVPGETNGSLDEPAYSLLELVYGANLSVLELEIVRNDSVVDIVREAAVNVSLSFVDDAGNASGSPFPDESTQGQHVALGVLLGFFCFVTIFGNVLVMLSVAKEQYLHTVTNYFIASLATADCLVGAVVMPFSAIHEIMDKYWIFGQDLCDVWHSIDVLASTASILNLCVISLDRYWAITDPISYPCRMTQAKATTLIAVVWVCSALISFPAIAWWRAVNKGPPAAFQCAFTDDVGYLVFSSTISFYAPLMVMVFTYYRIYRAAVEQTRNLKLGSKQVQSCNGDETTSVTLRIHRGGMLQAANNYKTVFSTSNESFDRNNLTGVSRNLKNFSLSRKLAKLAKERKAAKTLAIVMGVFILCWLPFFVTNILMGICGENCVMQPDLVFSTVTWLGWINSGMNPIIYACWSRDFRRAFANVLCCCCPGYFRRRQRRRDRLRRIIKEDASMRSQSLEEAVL
Test: cell-based
Details: read-out: % Inhibition (of response to dopamine), Isdop2 screen
Where inhibition at 10 µM equals or exceeds 80%, the correct label is met; where it does not, the label is not met.

Enquiry: Hi, just wondering whether Cc1nc2n(c(=O)c1CCN1CCC(c3noc4cc(F)ccc34)CC1)CCCC2 [Risperidone] shows inhibition at 10 µM of 80% or higher.
Return: met

Enquiry: Hi, just wondering whether CCC(=O)c1ccc2c(c1)N(CCCN(C)C)c1ccccc1S2 [Propionylpromazine] shows inhibition at 10 µM of 80% or higher.
Return: met

Enquiry: Hi, just wondering whether CN(C)CCCN1c2ccccc2Sc2ccccc21 [Promazine] shows inhibition at 10 µM of 80% or higher.
Return: met

Continuing:
Enquiry: Hi, just wondering whether OCCN1CCN(CC/C=C2/c3ccccc3Sc3ccc(C(F)(F)F)cc32)CC1 [cis-(Z)-Flupenthixol] shows inhibition at 10 µM of 80% or higher.
Return: met

Enquiry: Hi, just wondering whether CN1C2CCC1CC(OC(c1ccccc1)c1ccccc1)C2 (centres unmarked) [Benztropine] shows inhibition at 10 µM of 80% or higher.
Return: met

Enquiry: Hi, just wondering whether CN1[C@@H]2CC[C@H]1C[C@@H](OC(c1ccccc1)c1ccccc1N)C2 (some centres unmarked) [Aminobenztropine] shows inhibition at 10 µM of 80% or higher.
Return: not met

Enquiry: Hi, just wondering whether C[n+]1cc2c3c(ccc2c2ccc4cc5c(cc4c21)OCO5)OCO3 [Sanguinarine chloride] shows inhibition at 10 µM of 80% or higher.
Return: met

Enquiry: Hi, just wondering whether NC(=Nc1ccccc1)NC(=O)c1nc(Cl)c(N)nc1N [Phenamil methanesulfonate] shows inhibition at 10 µM of 80% or higher.
Return: not met

Enquiry: Hi, just wondering whether CN(C)CCC=C1c2ccccc2COc2ccccc21 (mixture of isomers) [Doxepin] shows inhibition at 10 µM of 80% or higher.
Return: met

Enquiry: Hi, just wondering whether CN1CCN(CCCN2c3ccccc3Sc3ccc(Cl)cc32)CC1 [Prochlorperazine] shows inhibition at 10 µM of 80% or higher.
Return: met

Enquiry: Hi, just wondering whether CSc1ccc2c(c1)N(CCC1CCCCN1C)c1ccccc1S2 (racemic) [Thioridazine] shows inhibition at 10 µM of 80% or higher.
Return: met

Enquiry: Hi, just wondering whether COC1=C(OC)C(=O)c2ccccc2C1=O [2,3-Dimethoxy-1,4-naphthoquinone] shows inhibition at 10 µM of 80% or higher.
Return: not met

Enquiry: Hi, just wondering whether C[C@@H]1O[C@@H](O[C@H]2C[C@@H](O)[C@]3(CO)[C@H]4[C@H](O)C[C@]5(C)[C@@H](C6=CC(=O)OC6)CC[C@]5(O)[C@@H]4CC[C@]3(O)C2)[C@H](O)[C@H](O)[C@H]1O [Ouabain] shows inhibition at 10 µM of 80% or higher.
Return: met

Enquiry: Hi, just wondering whether CN(C)CCCN1c2ccccc2Sc2ccc(C(F)(F)F)cc21 [Triflupromazine] shows inhibition at 10 µM of 80% or higher.
Return: met

Enquiry: Hi, just wondering whether CN1CCN2c3ccccc3Cc3ccccc3C2C1 (racemic) [Mianserin] shows inhibition at 10 µM of 80% or higher.
Return: met

Enquiry: Hi, just wondering whether CN1CCN(CC/C=C2/c3ccccc3Sc3ccc(S(=O)(=O)N(C)C)cc32)CC1 [Thiothixene] shows inhibition at 10 µM of 80% or higher.
Return: met

---

Biological target: AaDOP2 (Aedes aegypti, UniProt H6D5H2)
Sequence (H6D5H2 entry or part of it): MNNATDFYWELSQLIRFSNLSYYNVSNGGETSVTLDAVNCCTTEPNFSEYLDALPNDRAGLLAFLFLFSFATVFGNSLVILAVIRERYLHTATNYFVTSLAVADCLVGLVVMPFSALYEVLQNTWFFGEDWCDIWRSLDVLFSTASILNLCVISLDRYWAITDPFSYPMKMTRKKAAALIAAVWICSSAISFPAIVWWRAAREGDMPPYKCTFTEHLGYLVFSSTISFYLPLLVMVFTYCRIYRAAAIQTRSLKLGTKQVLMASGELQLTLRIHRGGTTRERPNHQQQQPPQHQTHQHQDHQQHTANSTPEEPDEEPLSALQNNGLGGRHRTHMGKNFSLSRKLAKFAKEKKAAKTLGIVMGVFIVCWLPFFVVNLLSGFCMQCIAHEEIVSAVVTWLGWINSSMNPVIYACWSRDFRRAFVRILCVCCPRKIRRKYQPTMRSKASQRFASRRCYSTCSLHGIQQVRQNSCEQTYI
Test: CRELuc reporter dose-response in HEK293 cells stably expressing AaDOP2
Assay type: cell-based
Conditions: HEK293 cells stably expressing CRELuc reporter and AaDOP2; read-out: EC50 values AaDOP2
READOUT KIND: EC50
Give me the value, and tack the unit on after it.

Enquiry: Given the compound Oc1cc2c(cc1O)[C@H]1c3ccccc3CN[C@@H]1CC2 (racemic) [Dihydrexidine] , what is its reported EC50?
Return: 290 nM

---

Entries annotated with measured inhibition at 10 µM
Molecular target: UniProt:A0ACM8DGL0
Assay: cell-based
Conditions: read-out: % Inhibition (of response to dopamine), Isdop2 screen
Counter-ions that a name gives are not always drawn.
Just the number in %, nothing appended.

Enquiry: API: value(readout=inhibition at 10 µM, system=UniProt:A0ACM8DGL0) for record COc1ccccc1N1CCN(CCCCN2C(=O)c3ccccc3C2=O)CC1 [NAN-190 hydrobromide]
Return: 69

Enquiry: API: value(readout=inhibition at 10 µM, system=UniProt:A0ACM8DGL0) for record CN1CCN(CCCN2c3ccccc3Sc3ccc(C(F)(F)F)cc32)CC1 [Trifluoperazine]
Return: 76

Continuing:
Enquiry: API: value(readout=inhibition at 10 µM, system=UniProt:A0ACM8DGL0) for record Cc1cc(N)c2ccccc2[n+]1CCCCCCCCCC[n+]1c(C)cc(N)c2ccccc21 [Dequalinium dichloride]
Return: 75

Enquiry: API: value(readout=inhibition at 10 µM, system=UniProt:A0ACM8DGL0) for record CC(CN(C)C)CN1c2ccccc2CCc2ccccc21 (racemic) [Trimipramine]
Return: 86

Enquiry: API: value(readout=inhibition at 10 µM, system=UniProt:A0ACM8DGL0) for record CN(C)CCCN1c2ccccc2CCc2ccc(Cl)cc21 [Clomipramine]
Return: 84

Enquiry: API: value(readout=inhibition at 10 µM, system=UniProt:A0ACM8DGL0) for record O=c1c(-c2ccc(O)cc2)coc2cc(O)cc(O)c12 [Genistein]
Return: 71

Enquiry: API: value(readout=inhibition at 10 µM, system=UniProt:A0ACM8DGL0) for record CSc1ccc2c(c1)C(N1CCN(C)CC1)Cc1ccccc1S2 (stereo not drawn) [Methiothepin]
Return: 100

Enquiry: API: value(readout=inhibition at 10 µM, system=UniProt:A0ACM8DGL0) for record Clc1ccc2c(c1)C(N1CCNCC1)=Nc1ccccc1O2 [Amoxapine]
Return: 92

Enquiry: API: value(readout=inhibition at 10 µM, system=UniProt:A0ACM8DGL0) for record CN(C)CCCN1c2ccccc2CCc2ccccc21 [Imipramine]
Return: 70

---

Biological target: AaDOP2 (Aedes aegypti, UniProt H6D5H2)
Test: LOPAC1280 antagonist screen in HEK-CRELuc-Aadop2 cells
Type: cell-based
Conditions: LOPAC1280 screen hits
READOUT KIND: % inhibition of DA activity (Aedes cell-based assay screen) (%)
Just the number in %, nothing appended.

Reference set, count: 8
Enquiry: Given the molecule Cc1nc2sccn2c(=O)c1CCN1CCC(=C(c2ccc(F)cc2)c2ccc(F)cc2)CC1 , what is its reported % inhibition of DA activity (Aedes cell-based assay screen)?
Return: 83

Enquiry: Given the molecule CN(C)CCCN1c2ccccc2Sc2ccccc21 , what is its reported % inhibition of DA activity (Aedes cell-based assay screen)?
Return: 88

Enquiry: Given the molecule Cc1nc2ccccn2c(=O)c1CCN1CCC(C(=O)c2ccc(F)cc2)CC1 , what is its reported % inhibition of DA activity (Aedes cell-based assay screen)?
Return: 90

Enquiry: Given the molecule CN1CCN(C2=Nc3ccccc3Oc3ccc(Cl)cc32)CC1 , what is its reported % inhibition of DA activity (Aedes cell-based assay screen)?
Return: 97

Enquiry: Given the molecule CCC(=O)c1ccc2c(c1)N(CCCN(C)C)c1ccccc1S2 , what is its reported % inhibition of DA activity (Aedes cell-based assay screen)?
Return: 85

Enquiry: Given the molecule CN(C)CCCN1c2ccccc2CCc2ccccc21 , what is its reported % inhibition of DA activity (Aedes cell-based assay screen)?
Return: 96

Enquiry: Given the molecule CN1CCc2ccccc2Cc2[nH]c3ccccc3c2CC1 , what is its reported % inhibition of DA activity (Aedes cell-based assay screen)?
Return: 99

Enquiry: Given the molecule OCCN1CCN(CCCN2c3ccccc3Sc3ccc(Cl)cc32)CC1 , what is its reported % inhibition of DA activity (Aedes cell-based assay screen)?
Return: 95

Continuing:
Enquiry: Given the molecule CCNC(=O)N1CCN(CCCC(c2ccc(F)cc2)c2ccc(F)cc2)CC1 [Amperozide] , what is its reported % inhibition of DA activity (Aedes cell-based assay screen)?
Return: 83

Enquiry: Given the molecule CN1CCC(=C2c3ccccc3CC(=O)c3sccc32)CC1 , what is its reported % inhibition of DA activity (Aedes cell-based assay screen)?
Return: 96

Enquiry: Given the molecule CC(CN(C)C)CN1c2ccccc2CCc2ccccc21 (racemic) , what is its reported % inhibition of DA activity (Aedes cell-based assay screen)?
Return: 87

---

Entries annotated with measured IC50
Molecular target: AaDOP2 (Aedes aegypti)
Assay: HTRF cAMP accumulation concentration response assay (Cisbio Dynamic 2)
Type: cell-based
Conditions: AaDOP2 expressing cells in the presence of dopamine; No Inhibition = <10% inhibition at 3 μM test compound; read-out: IC50 ± S.E.M. (nM), HTRF cAMP assay
Just the number in nM, nothing appended.

Reference set, count: 6
Enquiry: Given the compound CN(C)CCC=C1c2ccccc2CCc2ccccc21 , what is its reported IC50?
Return: 6.5

Enquiry: Given the compound CN(C)CCCN1c2ccccc2CCc2ccccc21 , what is its reported IC50?
Return: 360

Enquiry: Given the compound CN1CCC(=C2c3ccccc3CC(=O)c3sccc32)CC1 , what is its reported IC50?
Return: 750

Enquiry: Given the compound CNCCCN1c2ccccc2CCc2ccc(Cl)cc21 , what is its reported IC50?
Return: 670

Enquiry: Given the compound CN1CC2c3ccccc3Oc3ccc(Cl)cc3C2C1 (stereo not drawn) , what is its reported IC50?
Return: 0.3

Enquiry: Given the compound CN1CCc2cc(Cl)c(O)cc2C(c2ccccc2)C1 (stereo not drawn) , what is its reported IC50?
Return: 1300

Continuing:
Enquiry: Given the compound CCNC(=O)N1CCN(CCCC(c2ccc(F)cc2)c2ccc(F)cc2)CC1 [Amperozide] , what is its reported IC50?
Return: 570

Enquiry: Given the compound CNCCCN1c2ccccc2CCc2ccccc21 , what is its reported IC50?
Return: 3300

Enquiry: Given the compound CCOC(=O)N1CCC(=C2c3ccc(Cl)cc3CCc3cccnc32)CC1 , what is its reported IC50?
Return: 18000

Enquiry: Given the compound CN(C)CCCN1c2ccccc2Sc2ccc(Cl)cc21 , what is its reported IC50?
Return: 17

Enquiry: Given the compound OCCN1CCN(CC/C=C2/c3ccccc3Sc3ccc(C(F)(F)F)cc32)CC1 [cis-(Z)-Flupenthixol] , what is its reported IC50?
Return: 0.35

Enquiry: Given the compound Cc1nc2sccn2c(=O)c1CCN1CCC(=C(c2ccccc2)c2ccc(F)cc2)CC1 , what is its reported IC50?
Return: 53

All values here come from patent US20140350081A1.
